assaySystem: HER2 (Homo sapiens, UniProt P04626)
Construct: GST (Glutathione-S-Transferase) (N); HIS6 (N); thrombin cleavage site (N); purchased Proqinase, Freiburg, Germany
Sequence (P04626 679-1255): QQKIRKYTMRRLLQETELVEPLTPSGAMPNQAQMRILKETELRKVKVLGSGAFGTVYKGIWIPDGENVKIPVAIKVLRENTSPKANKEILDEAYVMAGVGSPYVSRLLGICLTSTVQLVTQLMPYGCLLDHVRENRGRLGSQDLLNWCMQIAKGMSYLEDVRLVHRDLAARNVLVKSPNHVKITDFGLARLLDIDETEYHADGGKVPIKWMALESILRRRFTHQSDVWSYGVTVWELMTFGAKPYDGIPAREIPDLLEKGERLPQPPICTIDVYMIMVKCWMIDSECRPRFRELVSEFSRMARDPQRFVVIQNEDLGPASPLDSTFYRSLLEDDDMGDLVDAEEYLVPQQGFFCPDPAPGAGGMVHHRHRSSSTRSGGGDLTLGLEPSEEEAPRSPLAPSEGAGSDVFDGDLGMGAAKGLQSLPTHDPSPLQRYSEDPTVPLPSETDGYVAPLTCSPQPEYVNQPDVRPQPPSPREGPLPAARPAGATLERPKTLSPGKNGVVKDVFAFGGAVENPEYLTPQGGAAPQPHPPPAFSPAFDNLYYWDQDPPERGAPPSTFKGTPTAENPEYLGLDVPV
procedureText: HER2 kinase screening assay (33P-ATP FlashPlate);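 also: Biotin-poly(GT) 4:1 peptide captured on streptavidin FlashPlate, 33P transfer from γ-ATP read by scintillation counting, lower incorporation means inhibition, 1% DMSO final, 100 µL reaction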
Type: biochemical
appliedConditions: GST-HIS6 HER-2 aa 679 to 1255; 10 μM ATP; 1 hr at 30° C
pIC50: −log10 of the molar value.
resultType: pIC50

COCc1cccc2[nH]c(-c3n[nH]c4ncc(-c5cncc(CN)c5)cc34)nc12 [Cpd 73] ... < 5.00
O=C(c1cccc2[nH]c(-c3n[nH]c4ncc(-c5cncc6ccccc56)cc34)nc12)N1CCOCC1 [Cpd 24] ... < 5.00
CCNCc1cncc(-c2cnc3[nH]nc(-c4nc5cc(F)c(F)cc5[nH]4)c3c2)c1 [Cpd 107] ... 5.44
COCc1cccc2[nH]c(-c3n[nH]c4ncc(-c5ccc(OC)nc5)cc34)nc12 [Cpd 63] ... < 4.00
FC1(F)Oc2cc3nc(-c4n[nH]c5ncc(-c6cccnc6)cc45)[nH]c3cc2O1 [Cpd 98] ... < 4.00
COCCNCc1cncc(-c2cnc3[nH]nc(-c4nc5cc(N6CCN(C)CC6)ccc5[nH]4)c3c2)c1 [Cpd 86] ... 5.98

What pIC50 value was documented for this molecule, CNCc1cncc(-c2cnc3[nH]nc(-c4nc5c(COC)cccc5[nH]4)c3c2)c1C [Cpd 62] ?
< 4.00

What pIC50 value was documented for this molecule, COCc1cccc2[nH]c(-c3n[nH]c4ncc(-c5ccncc5)cc34)nc12 [Cpd 65] ?
< 4.00

###

Reported IC50 values for the following compounds.
Tested on: HCT-116 colon carcinoma
procedureText: Cell Proliferation Inhibition Assay (14C-thymidine incorporation), HCT-116;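 also: proliferation measured as methyl 14C-thymidine uptake into new DNA, counted in 96-well scintillating microplates, compared with DMSO-only control wells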
Type: cell-based
appliedConditions: Homo sapiens, HCT-116, HCT-116 cells
Value expressed in nM; do not type the unit.

Below, each entry is followed by its recorded IC50 result.
CCN(CC)C(=O)c1cccc2[nH]c(-c3n[nH]c4ncc(-c5cncc6ccccc56)cc34)nc12 ... 1830
CCN(CC)Cc1cccc2[nH]c(-c3n[nH]c4ncc(Br)cc34)nc12 ... 259
O=C(c1cccc2[nH]c(-c3n[nH]c4ncc(-c5cncc6ccccc56)cc34)nc12)N1CCCC1 ... 899
CN1CCN(C(=O)c2cccc3[nH]c(-c4n[nH]c5ncc(-c6cncc7ccccc67)cc45)nc23)CC1 ... 3170

What IC50 value was documented for this compound, "c1ccc2c(-c3cnc4[nH]nc(-c5nc6c(CN7CCCCC7)cccc6[nH]5)c4c3)cncc2c1" ?
28.5

What IC50 value was documented for this compound, "OCc1cccc2[nH]c(-c3n[nH]c4ncc(-c5cncc6ccccc56)cc34)nc12" ?
892

###

Tested on: HeLa cervical adenocarcinoma
procedureText: Cell Proliferation Inhibition Assay (14C-thymidine incorporation), HeLa;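 also: test compound in DMSO added to cells seeded in scintillating 96-well plates, DMSO-only wells as control, uptake of methyl 14C-thymidine into new DNA counted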
Format: cell-based
appliedConditions: Homo sapiens, HeLa cells
resultType: IC50 (nM)
Value expressed in nM; do not type the unit.

COCCNCc1cncc(-c2cnc3[nH]nc(-c4nc5cc(N6CCN(C)CC6)ccc5[nH]4)c3c2)c1 ... 2290
CC(C)OCc1cccc2[nH]c(-c3n[nH]c4ncc(-c5cncc6ccccc56)cc34)nc12 ... 2140
CCCNCc1cncc(-c2cnc3[nH]nc(-c4nc5cc(N6CCN(C)CC6)ccc5[nH]4)c3c2)c1 ... 692

What IC50 value was documented for this compound, "CCCCNCc1cncc(-c2cnc3[nH]nc(-c4nc5cc(OC)ccc5[nH]4)c3c2)c1" ?
85

What IC50 value was documented for this compound, "CN1CCN(c2ccc3[nH]c(-c4n[nH]c5ncc(-c6cncc7ccccc67)cc45)nc3c2)CC1" ?
455

What IC50 value was documented for this compound, "CNCc1cncc(-c2cnc3[nH]nc(-c4nc5cc(N6CCN(C)CC6)ccc5[nH]4)c3c2)c1" ?
444

What IC50 value was documented for this compound, "CNCc1cncc(-c2cnc3[nH]nc(-c4nc5ccc(OC)cc5[nH]4)c3c2)c1" ?
61.4

What IC50 value was documented for this compound, "CCCNCc1cncc(-c2cnc3[nH]nc(-c4nc5cc(OC)ccc5[nH]4)c3c2)c1" ?
62.3
